tested-target: CFTR G551D mutant (Homo sapiens, UniProt P13569, G551D)
Construct: expressed in transfected cells; host or cells: HEK293 cells, reverse transfection with plasmids
Sequence (P13569 whole entry G551D): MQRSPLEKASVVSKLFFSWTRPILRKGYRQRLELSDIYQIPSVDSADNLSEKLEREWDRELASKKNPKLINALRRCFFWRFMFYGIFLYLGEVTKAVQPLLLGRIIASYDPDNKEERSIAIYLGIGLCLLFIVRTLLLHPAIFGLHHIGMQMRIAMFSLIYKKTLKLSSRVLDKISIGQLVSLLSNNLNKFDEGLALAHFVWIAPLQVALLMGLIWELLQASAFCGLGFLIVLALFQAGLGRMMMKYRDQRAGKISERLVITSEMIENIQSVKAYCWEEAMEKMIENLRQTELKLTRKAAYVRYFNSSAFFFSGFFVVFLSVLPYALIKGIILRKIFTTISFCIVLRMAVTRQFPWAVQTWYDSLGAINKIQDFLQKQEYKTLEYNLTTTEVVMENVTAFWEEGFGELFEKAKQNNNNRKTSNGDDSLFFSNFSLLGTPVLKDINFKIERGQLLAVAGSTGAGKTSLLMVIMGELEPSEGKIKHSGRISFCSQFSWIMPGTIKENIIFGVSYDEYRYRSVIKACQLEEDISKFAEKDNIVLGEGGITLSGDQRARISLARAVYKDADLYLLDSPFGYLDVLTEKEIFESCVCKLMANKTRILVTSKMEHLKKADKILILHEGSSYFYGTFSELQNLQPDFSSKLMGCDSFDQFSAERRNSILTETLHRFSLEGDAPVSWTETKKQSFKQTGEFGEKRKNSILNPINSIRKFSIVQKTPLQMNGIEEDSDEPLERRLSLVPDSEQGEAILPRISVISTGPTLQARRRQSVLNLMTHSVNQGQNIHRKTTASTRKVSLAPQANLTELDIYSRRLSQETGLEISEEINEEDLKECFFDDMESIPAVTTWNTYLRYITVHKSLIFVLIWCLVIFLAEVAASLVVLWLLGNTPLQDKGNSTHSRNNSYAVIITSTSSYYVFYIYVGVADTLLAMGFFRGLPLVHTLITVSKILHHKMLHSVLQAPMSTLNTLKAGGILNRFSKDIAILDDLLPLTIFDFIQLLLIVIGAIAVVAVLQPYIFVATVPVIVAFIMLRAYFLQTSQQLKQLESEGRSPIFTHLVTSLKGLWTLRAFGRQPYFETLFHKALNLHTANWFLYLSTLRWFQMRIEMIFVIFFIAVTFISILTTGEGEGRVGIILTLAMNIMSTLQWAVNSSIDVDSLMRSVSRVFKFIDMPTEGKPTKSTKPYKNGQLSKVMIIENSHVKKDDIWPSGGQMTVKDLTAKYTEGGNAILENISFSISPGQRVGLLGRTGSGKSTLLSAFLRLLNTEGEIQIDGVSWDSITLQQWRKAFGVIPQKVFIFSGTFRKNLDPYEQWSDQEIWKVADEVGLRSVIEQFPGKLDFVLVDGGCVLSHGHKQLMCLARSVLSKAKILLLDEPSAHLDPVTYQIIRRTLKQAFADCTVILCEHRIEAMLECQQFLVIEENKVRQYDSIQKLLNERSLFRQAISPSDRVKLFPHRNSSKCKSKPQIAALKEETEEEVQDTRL
assay-info: YFP-halide influx assay for the CFTR-G551D mutation (HEK293 cells)
Type: cell-based
conditions-used: forskolin 10.67 μM
reported-endpoint: % Activation (%)

compound=Nc1cc(S(=O)(=O)c2ccc(OC(F)(F)F)cc2)cnc1C(=O)NCC1(O)CC1 reported_endpoint="% Activation" value=69.3
compound=COCCCNC(=O)c1ncc(S(=O)(=O)c2ccc(C(F)(F)F)cc2)cc1N reported_endpoint="% Activation" value=48.4
compound=Nc1cc(S(=O)(=O)c2ccc(F)cc2)c(-c2ccc(F)cc2)nc1C(=O)NC[C@@H](O)C(F)(F)F reported_endpoint="% Activation" value=92.6
compound=Nc1cc(S(=O)(=O)c2ccc(C(F)(F)F)cc2)cnc1C(=O)N[C@H]1COCC[C@H]1O reported_endpoint="% Activation" value=50.4
compound=Nc1cc(S(=O)(=O)c2ccccc2OC(F)(F)F)cnc1C(=O)N1CC(F)(F)C1 reported_endpoint="% Activation" value=55.9

[P] Nc1cc(S(=O)(=O)c2ccc(OC(F)(F)F)cc2)cnc1C(=O)NCCc1ccco1
[Q] C[C@H](O)CNC(=O)c1nc(-c2ccc(F)cc2)c(S(=O)(=O)CCO)cc1N
[R] Nc1cc(S(=O)(=O)c2ccc(OC(F)(F)F)cc2)cnc1C(=O)NC1COC1
[S] CC(C)CNC(=O)c1ncc(S(=O)(=O)c2ccc(C(F)(F)F)cc2)cc1N
Query :: Sequence the entries by % Activation, beginning with the highest number. Lab note: record answer as labels in requested order.
Result :: P, S, Q, R

[A] CC[C@@H](CO)NC(=O)c1ncc(S(=O)(=O)c2ccc(C(F)(F)F)cc2)cc1N
[B] Nc1cc(S(=O)(=O)c2ccc(C(F)(F)F)cc2)cnc1C(=O)NCC(O)COCC1CC1 (stereo not shown)
Query :: Of A versus B , which is the one with smaller reported % Activation? Write down the label of the entry you select.
Result :: A

[A] Nc1cc(S(=O)(=O)c2ccc(OC(F)(F)F)cc2F)cnc1C(=O)N1CC(O)(C(F)(F)F)C1
[B] CC(C)C(CO)NC(=O)c1ncc(S(=O)(=O)c2ccc(OC(F)(F)F)cc2)cc1N (stereo not shown)
Query :: Which entry shows the lesser value of % Activation here, A or B ? # answer = label of selected item
Result :: B

[I] Nc1cc(S(=O)(=O)c2ccc(OC(F)(F)F)cc2)cnc1C(=O)NC1COC2(CCCCC2)C1 (stereo not shown)
[II] CC(O)(CNC(=O)c1ncc(S(=O)(=O)c2ccc(F)cc2)cc1N)C(F)(F)F (stereo not shown)
Query :: Lower value for measured % Activation? Options: I , II Returns: label corresponding to the selected item.
Result :: I

###

tested-target: CFTR-G1349D (Homo sapiens, UniProt P13569, G1349D)
Sequence (P13569 whole entry G1349D): as the sequence (P13569 whole entry G551D) above, with D551G, G1349D counted along it
assay-info: YFP-halide influx assay for the CFTR-G1349D
reported-endpoint: EC50 (nM)

Check out these entries, answers already filled in.
compound=Nc1cc(S(=O)(=O)c2ccc(OC(F)(F)F)cc2)cnc1C(=O)NCCO value=816
compound=COC[C@H](O)CNC(=O)c1ncc(S(=O)(=O)c2ccccc2OC(F)(F)F)cc1N value=97.9
compound=C[C@H](O)CNC(=O)c1ncc(S(=O)(=O)c2ccc(OC(F)(F)F)cc2)cc1N value=498
compound=Nc1cc(S(=O)(=O)c2ccccc2OC(F)(F)F)cnc1C(=O)NCCO value=284
compound=Nc1cc(S(=O)(=O)c2ccc(C(F)(F)F)cc2)cnc1C(=O)N1CC(F)(F)C1 value=448

[a] Nc1cc(S(=O)(=O)c2ccc(C(F)(F)F)cc2)cnc1C(=O)NCCO
[b] CC(O)(CNC(=O)c1ncc(S(=O)(=O)c2ccc(F)cc2)cc1N)C(F)(F)F (stereo not shown)
[c] Nc1cc(S(=O)(=O)N2CCC(C(F)(F)F)CC2)cnc1C(=O)NCC(O)C(F)(F)F (stereo not shown)
Query :: Form: Sort by [EC50] Order [ ascending ] Provide the ranking by listing each label in its place in the requested order.
Result :: c, b, a

[A] Nc1cc(S(=O)(=O)c2ccc(C(F)(F)F)cc2)cnc1C(=O)NCC(F)(F)CO
[B] Nc1cc(S(=O)(=O)c2ccc(C(F)(F)F)cc2)cnc1C(=O)N1CC(OCC(F)F)C1
Query :: Compare A and B by numeric EC50 and name the larger one. Kindly give the label for the entry you pick.
Result :: A

[a] Nc1cc(S(=O)(=O)c2ccccc2OC(F)(F)F)cnc1C(=O)N1CC(F)(F)C1
[b] Nc1cc(S(=O)(=O)c2ccc(OC(F)(F)F)cc2)cnc1C(=O)N[C@@H]1COCC[C@@H]1O (racemic)
Query :: Consider a and b . Which of these has its EC50 at a higher number? Identify your selection by its label.
Result :: b

###

tested-target: CFTR G551D mutant (Homo sapiens, UniProt P13569, G551D)
assay-info: YFP-halide influx assay for the CFTR-G551D mutation (HEK293 cells)
conditions-used: forskolin 10.67 μM
pEC50: −log10 of the molar value.
reported-endpoint: pEC50

Worked cases, answers included:
molecule=Nc1cc(S(=O)(=O)c2ccc(OC(F)(F)F)cc2)cnc1C(=O)NCC1CC(F)(F)C1 value=6.12
molecule=Nc1cc(S(=O)(=O)c2ccc(OC(F)(F)F)cc2)cnc1C(=O)N1CC(O)(C(F)(F)F)C1 value=6.59
molecule=Nc1cc(S(=O)(=O)c2ccc(C(F)(F)F)cc2F)cnc1C(=O)NC[C@@H](O)C(F)(F)F value=6.79

[P] CC(C)OCC(O)CNC(=O)c1ncc(S(=O)(=O)c2ccc(C(F)(F)F)cc2)cc1N (stereo not shown)
[Q] Nc1cc(S(=O)(=O)c2ccc(OC(F)(F)F)cc2F)cnc1C(=O)NC[C@@H]1CCOC1
[R] Nc1cc(S(=O)(=O)c2ccc(OC(F)(F)F)cc2)cnc1C(=O)NCC1CCCO1 (stereo not shown)
[S] CC[C@@H](CO)NC(=O)c1ncc(S(=O)(=O)c2ccc(OC(F)(F)F)cc2)cc1N
Query :: hey, can you rank those molecules up there by pEC50? biggest number first please Give the order by naming the labels one after another as requested.
Result :: P, S, R, Q

###

tested-target: CFTR-G1349D (Homo sapiens, UniProt P13569, G1349D)
Construct: expressed in transfected cells
assay-info: YFP-halide influx assay for the CFTR-G1349D
Format: cell-based
reported-endpoint: % Activation (%)

compound="Nc1cc(S(=O)(=O)c2ccc(OC(F)(F)F)cc2)cnc1C(=O)N1CC(O)(C(F)(F)F)C1 [Compound 79]" tested_target="CFTR-G1349D (Homo sapiens, UniProt P13569, G1349D)" value=83.08
compound="CC(C)OCC(O)CNC(=O)c1ncc(S(=O)(=O)c2ccc(C(F)(F)F)cc2)cc1N (stereo not shown) [Compound 92]" tested_target="CFTR-G1349D (Homo sapiens, UniProt P13569, G1349D)" value=91.24
compound="COCC1(C)CN(C(=O)c2ncc(S(=O)(=O)c3ccc(OC(F)(F)F)cc3)cc2N)C1 [Compound 154]" tested_target="CFTR-G1349D (Homo sapiens, UniProt P13569, G1349D)" value=97.6
compound="Nc1cc(S(=O)(=O)c2ccc(C(F)(F)F)cc2)cnc1C(=O)N1CC(OCC(F)F)C1 [Compound 231]" tested_target="CFTR-G1349D (Homo sapiens, UniProt P13569, G1349D)" value=83.9

###

tested-target: CFTR G551D mutant (Homo sapiens, UniProt P13569, G551D)
Construct: expressed in transfected cells; host or cells: HEK293 cells, reverse transfection with plasmids
assay-info: YFP-halide influx assay for the CFTR-G551D mutation (HEK293 cells)
Assay type: cell-based
conditions-used: forskolin 10.67 μM
reported-endpoint: % Activation (%)

molecule="Nc1cc(S(=O)(=O)N2CCC(OC(F)(F)F)CC2)cnc1C(=O)NCC(O)C(F)(F)F (stereo not shown) [Compound 198]" tested_target="CFTR G551D mutant (Homo sapiens, UniProt P13569, G551D)" reported_endpoint="% Activation" display_unit=% value=75.2
molecule="COCC(O)CNC(=O)c1ncc(S(=O)(=O)c2ccccc2OC(F)(F)F)cc1N (stereo not shown) [Compound 80]" tested_target="CFTR G551D mutant (Homo sapiens, UniProt P13569, G551D)" reported_endpoint="% Activation" display_unit=% value=95.1
molecule="C[C@H](O)CNC(=O)c1ncc(S(=O)(=O)c2ccccc2OC(F)(F)F)cc1N [Compound 82]" tested_target="CFTR G551D mutant (Homo sapiens, UniProt P13569, G551D)" reported_endpoint="% Activation" display_unit=% value=89.9
molecule="CCOCCOCC(O)CNC(=O)c1ncc(S(=O)(=O)c2ccc(OC(F)(F)F)cc2)cc1N (stereo not shown) [Compound 38]" tested_target="CFTR G551D mutant (Homo sapiens, UniProt P13569, G551D)" reported_endpoint="% Activation" display_unit=% value=86.0
